Answer each item with its documented t½.
assaySystem: SARS-COV-2 RBD extracellular domain expressed with a C-terminal myc-myc-hexahistidine tag (SARS-CoV-2)
assaySummary: SPR (Biacore), mAb captured by anti-human Fc, RBD-mmH in solution, 25 C

binder	t½
mAb14255 (antibody, V domains shown) VH: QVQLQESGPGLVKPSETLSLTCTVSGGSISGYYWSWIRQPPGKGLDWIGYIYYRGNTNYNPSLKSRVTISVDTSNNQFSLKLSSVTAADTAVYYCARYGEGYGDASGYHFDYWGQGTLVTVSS VL: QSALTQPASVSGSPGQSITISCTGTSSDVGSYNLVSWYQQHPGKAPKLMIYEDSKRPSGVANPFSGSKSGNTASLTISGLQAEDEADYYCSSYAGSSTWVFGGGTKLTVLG	2.3 min

Alright, here's another binder for you.
Given mAb14315 (antibody, V domains shown) VH: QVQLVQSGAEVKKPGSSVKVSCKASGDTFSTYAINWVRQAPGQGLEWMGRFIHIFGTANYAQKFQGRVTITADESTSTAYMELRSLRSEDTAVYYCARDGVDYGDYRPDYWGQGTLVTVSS VL: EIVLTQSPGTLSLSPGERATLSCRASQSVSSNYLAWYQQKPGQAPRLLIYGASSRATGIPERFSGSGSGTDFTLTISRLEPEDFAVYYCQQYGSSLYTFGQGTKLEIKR , state its recorded t½.
11.4 min

Provenance of the data: patent US20260069689A1
